compounds and their reported K
Test system: Escherichia coli
Assay: Binding affinity to Escherichia coli sliding clamp assessed as association rate constant by ITC analysis
Where a SMILES comes first, the peptide text is derived from it. [ ]: non-standard residue; d: D form. Cha = N[C@@H](CC1CCCCC1)C(=O)O; NMeD = CN[C@@H](CC(=O)O)C(=O)O; Pip = O=C(O)[C@@H]1CCCCN1

Past entries and their recorded results:
| compound | K |
| --- | --- |
| CC(=O)N[C@@H](CCC(N)=O)C(=O)N[C@@H](CC1CCCCC1)C(=O)N[C@@H](CC(=O)O)C(=O)N[C@@H](CC(C)C)C(=O)N[C@@H](Cc1ccccc1)C(=O)O (Ac-Q[Cha]DLF-OH) | 4 10^4/M/s |
| CC(=O)N[C@@H](CCC(N)=O)C(=O)N[C@@H](CC1CCCCC1)C(=O)N[C@@H](CC(=O)O)C(=O)N[C@@H](CC(C)C)C(=O)NCC(=O)N[C@@H](CC(C)C)C(=O)O (Ac-Q[Cha]DLGL-OH) | 2.6 10^4/M/s |
| CC(=O)N[C@@H](CCC(N)=O)C(=O)N[C@@H](CC1CCCCC1)C(=O)N[C@@H](CC(=O)O)C(=O)N[C@@H](CC(C)C)C(=O)N1CCCC[C@H]1C(=O)N[C@@H](CC(C)C)C(=O)O (Ac-Q[Cha]DL[Pip]L-OH) | 4.3 10^4/M/s |

Next:
query: Please indicate K recorded for CC(=O)N[C@@H](CCC(N)=O)C(=O)N[C@@H](CC1CCCCC1)C(=O)N(C)[C@@H](CC(=O)O)C(=O)N[C@@H](CC(C)C)C(=O)N1CCC[C@H]1C(=O)N[C@@H](CC(C)C)C(=O)O (Ac-Q[Cha][NMeD]LPL-OH)
result: 1 10^5/M/s

###

Test system: Escherichia coli
Test: Binding affinity to Escherichia coli sliding clamp assessed as association rate constant by ITC analysis
*1 amine or outer side, *2 acyl side, *3 side chain or, on linkers, in order; H or OH if unused. Where a SMILES comes first, the peptide text is derived from it. [ ]: non-standard residue; d: D form. The star is where a group is joined. Phe(3,4-F2) = N[C@@H](Cc1ccc(F)c(F)c1)C(=O)O; Cinnamoyl(4-F) = O=C(/C=C/c1ccc(F)cc1)*; X2 = O=C(CN(Cc1ccccn1)[*:1])[*:2]; NFurfurylGly = O=C(O)CNCc1ccco1; Cha = N[C@@H](CC1CCCCC1)C(=O)O; NMeD = CN[C@@H](CC(=O)O)C(=O)O
parameter: K

Past entries and their recorded results:
| compound | K |
| --- | --- |
| CC(C)C[C@H](NC(=O)[C@H](CC(=O)O)NC(=O)[C@H](CC1CCCCC1)NC(=O)[C@H](CCC(N)=O)NC(=O)CNCc1ccco1)C(=O)N[C@@H](Cc1ccccc1)C(=O)O (H-[NFurfurylGly]Q[Cha]DLF-OH) | 4.8 10^4/M/s |
| CC(=O)N[C@@H](CCC(N)=O)C(=O)N[C@@H](CC1CCCCC1)C(=O)N[C@@H](CC(=O)O)C(=O)N[C@@H](CC(C)C)C(=O)NCC(=O)N[C@@H](Cc1ccccc1)C(=O)O (Ac-Q[Cha]DLGF-OH) | 3.2 10^4/M/s |
| CC(C)C[C@H](NC(=O)[C@H](CC(=O)O)NC(=O)[C@H](CC1CCCCC1)NC(=O)[C@H](CCC(N)=O)NC(=O)CNCc1ccccn1)C(=O)N[C@@H](Cc1ccccc1)C(=O)O (H-[X2]Q[Cha]DLF-OH) | 3.4 10^4/M/s |

query: Please indicate K recorded for CC(C)C[C@H](NC(=O)[C@H](CC(=O)O)N(C)C(=O)[C@H](CC1CCCCC1)NC(=O)[C@H](CCC(N)=O)NC(=O)/C=C/c1ccc(F)cc1)C(=O)N[C@@H](Cc1ccc(F)c(F)c1)C(=O)O ({Cinnamoyl(4-F)}-Q[Cha][NMeD]L[Phe(3,4-F2)]-OH)
result: 5.1 10^4/M/s
